assay system: Dpo4•DNA binary complex (Saccharolobus solfataricus, UniProt Q97W02)
test details: Substrate specificity assay
Format: biochemical, Sulfolobus solfataricus
particulars: read-out: Kd,dNTP; DNA substrate 19/26-mer-dG^C8-N-ABA 30 nM, Dpo4 120 nM, 37 °C
test readout: Kd (µM)
# number only, unit µM dropped from output

Reference set, count: 2
INSERT INTO measurements (smiles_repr, test_readout, value_observed) VALUES
  ('Nc1ccn([C@H]2C[C@H](O)[C@@H](COP(=O)(O)OP(=O)(O)OP(=O)(O)O)O2)c(=O)n1', 'Kd', 220),
  ('Nc1nc2c(ncn2[C@H]2C[C@H](O)[C@@H](COP(=O)(O)OP(=O)(O)OP(=O)(O)O)O2)c(=O)[nH]1', 'Kd', 50);

Kindly consider the entry below.
-- ask Please tell me: Kd of `Nc1ncnc2c1ncn2[C@H]1C[C@H](O)[C@@H](COP(=O)(O)OP(=O)(O)OP(=O)(O)O)O1` , system Dpo4•DNA binary complex (Saccharolobus solfataricus, UniProt Q97W02)?
-- reply 430

###

assay system: Dpo4•DNA binary complex (Saccharolobus solfataricus)
Sequence (Q97W02 1-352): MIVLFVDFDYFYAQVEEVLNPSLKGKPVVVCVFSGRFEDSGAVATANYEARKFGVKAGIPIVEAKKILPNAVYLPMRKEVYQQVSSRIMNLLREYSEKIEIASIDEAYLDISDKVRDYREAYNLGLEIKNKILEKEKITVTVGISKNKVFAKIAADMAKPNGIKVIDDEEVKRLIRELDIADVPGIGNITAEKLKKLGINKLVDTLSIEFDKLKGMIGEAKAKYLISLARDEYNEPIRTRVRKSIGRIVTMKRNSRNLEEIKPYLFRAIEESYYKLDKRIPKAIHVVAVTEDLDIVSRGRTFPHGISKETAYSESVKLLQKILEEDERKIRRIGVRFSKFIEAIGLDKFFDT
test details: Substrate specificity assay
Assay type: biochemical, Sulfolobus solfataricus
particulars: DNA substrate 19/26-mer-dG^C8-N-ABA vs control 19/26-mer
test readout: Efficiency Ratio (kp/Kd, dNTP)control/(kp/Kd, dNTP)damaged
// response body must contain only the number

Reference set, count: 3
INSERT INTO results (molecule, value_observed) VALUES
  ('Cc1cn([C@H]2C[C@H](O)[C@@H](COP(=O)(O)OP(=O)(O)OP(=O)(O)O)O2)c(=O)[nH]c1=O [dTTP]', 1.6),
  ('Nc1ccn([C@H]2C[C@H](O)[C@@H](COP(=O)(O)OP(=O)(O)OP(=O)(O)O)O2)c(=O)n1 [dCTP]', 22),
  ('Nc1ncnc2c1ncn2[C@H]1C[C@H](O)[C@@H](COP(=O)(O)OP(=O)(O)OP(=O)(O)O)O1 [dATP]', 2.1);

Kindly consider the entry below.
-- ask Query: Efficiency Ratio (kp/Kd, dNTP)control/(kp/Kd, dNTP)damaged; subject: Nc1nc2c(ncn2[C@H]2C[C@H](O)[C@@H](COP(=O)(O)OP(=O)(O)OP(=O)(O)O)O2)c(=O)[nH]1 [dGTP]
-- reply 2.6

###

Recorded measurements of Kd, one per entry
assay system: Dpo4•DNA binary complex (Saccharolobus solfataricus)
Sequence (Q97W02 1-352): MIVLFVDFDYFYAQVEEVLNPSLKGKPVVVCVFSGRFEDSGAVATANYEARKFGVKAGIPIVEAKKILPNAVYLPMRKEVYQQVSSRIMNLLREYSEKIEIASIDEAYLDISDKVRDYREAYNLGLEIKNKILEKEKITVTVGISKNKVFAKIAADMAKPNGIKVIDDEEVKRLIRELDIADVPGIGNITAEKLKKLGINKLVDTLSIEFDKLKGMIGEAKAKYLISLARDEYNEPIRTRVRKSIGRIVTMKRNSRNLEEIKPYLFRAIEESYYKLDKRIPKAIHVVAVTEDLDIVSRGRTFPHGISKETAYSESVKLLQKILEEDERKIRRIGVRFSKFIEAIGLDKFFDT
test details: Substrate specificity assay
Format: biochemical, Sulfolobus solfataricus
particulars: read-out: Kd,dNTP; DNA substrate 22/26-mer-dG^C8-N-ABA 30 nM, Dpo4 120 nM, 37 °C
# number only, unit µM dropped from output

Reference set, count: 3
INSERT INTO results (smiles_repr, value_observed) VALUES
  ('Nc1nc2c(ncn2[C@H]2C[C@H](O)[C@@H](COP(=O)(O)OP(=O)(O)OP(=O)(O)O)O2)c(=O)[nH]1', 1100),
  ('Nc1ncnc2c1ncn2[C@H]1C[C@H](O)[C@@H](COP(=O)(O)OP(=O)(O)OP(=O)(O)O)O1', 470),
  ('Cc1cn([C@H]2C[C@H](O)[C@@H](COP(=O)(O)OP(=O)(O)OP(=O)(O)O)O2)c(=O)[nH]c1=O', 770);

Kindly consider the entry below.
-- ask Query: Kd; subject: `Nc1ccn([C@H]2C[C@H](O)[C@@H](COP(=O)(O)OP(=O)(O)OP(=O)(O)O)O2)c(=O)n1`
-- reply 1400
